Would you mind telling me the reported Kd of each entry?
- SYSTEM: T1, human IL-18BP (human, UniProt O95998 31-194)
- T1 construct: UniProt printed as 095998; also called hIL-18BP
- T1 sequence: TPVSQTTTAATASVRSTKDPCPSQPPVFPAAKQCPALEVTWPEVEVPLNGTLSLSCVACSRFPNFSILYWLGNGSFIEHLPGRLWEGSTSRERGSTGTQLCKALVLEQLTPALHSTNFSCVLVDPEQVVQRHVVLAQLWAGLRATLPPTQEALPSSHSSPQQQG
- PROTOCOL_DETAILS: BLI, apparent KD
In your response, put the unit directly after the numeric value.

[Q] Which measured Kd value corresponds to SA301a LC-S93D (antibody, V domains shown) VH: QVQLQESGPGLVKPSQTLSLTCTVSGYSITSDYNSHWIRQPPGKGLEWIGYIHYSGSTNYNPSLKSRVTISRDTSKNQFSLKLSSVTAADTAVYYCARNYGSIYVNYFDYWGQGTLVTVSS VL: EIVLTQSPATLSLSPGERATLSCSASSSVSYMYWYQQKPGQAPRPLIYRTSNLASGIPARFSGSGSGTDFTLTISSLEPEDFAVYYCQQYHDYPTFGGGTKVEIK ?
[A] 0.23 nM

[Q] Using the record for SA301a LC-P95L (antibody, V domains shown) VH: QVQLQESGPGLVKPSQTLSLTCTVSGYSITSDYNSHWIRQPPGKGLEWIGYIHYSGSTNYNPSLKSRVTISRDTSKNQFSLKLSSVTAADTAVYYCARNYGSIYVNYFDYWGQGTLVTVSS VL: EIVLTQSPATLSLSPGERATLSCSASSSVSYMYWYQQKPGQAPRPLIYRTSNLASGIPARFSGSGSGTDFTLTISSLEPEDFAVYYCQQYHSYLTFGGGTKVEIK , report its Kd.
[A] 2.18 nM

[Q] Give its Kd value. Item: SA301a LC-H92A (antibody, V domains shown) VH: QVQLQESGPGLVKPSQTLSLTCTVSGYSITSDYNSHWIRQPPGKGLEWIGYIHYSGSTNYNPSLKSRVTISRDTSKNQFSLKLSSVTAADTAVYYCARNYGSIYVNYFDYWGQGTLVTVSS VL: EIVLTQSPATLSLSPGERATLSCSASSSVSYMYWYQQKPGQAPRPLIYRTSNLASGIPARFSGSGSGTDFTLTISSLEPEDFAVYYCQQYASYPTFGGGTKVEIK
[A] 0.95 nM
